Target: Matrix metalloproteinase-9 (Homo sapiens) (UniProt P14780)
Sequence (P14780 whole entry): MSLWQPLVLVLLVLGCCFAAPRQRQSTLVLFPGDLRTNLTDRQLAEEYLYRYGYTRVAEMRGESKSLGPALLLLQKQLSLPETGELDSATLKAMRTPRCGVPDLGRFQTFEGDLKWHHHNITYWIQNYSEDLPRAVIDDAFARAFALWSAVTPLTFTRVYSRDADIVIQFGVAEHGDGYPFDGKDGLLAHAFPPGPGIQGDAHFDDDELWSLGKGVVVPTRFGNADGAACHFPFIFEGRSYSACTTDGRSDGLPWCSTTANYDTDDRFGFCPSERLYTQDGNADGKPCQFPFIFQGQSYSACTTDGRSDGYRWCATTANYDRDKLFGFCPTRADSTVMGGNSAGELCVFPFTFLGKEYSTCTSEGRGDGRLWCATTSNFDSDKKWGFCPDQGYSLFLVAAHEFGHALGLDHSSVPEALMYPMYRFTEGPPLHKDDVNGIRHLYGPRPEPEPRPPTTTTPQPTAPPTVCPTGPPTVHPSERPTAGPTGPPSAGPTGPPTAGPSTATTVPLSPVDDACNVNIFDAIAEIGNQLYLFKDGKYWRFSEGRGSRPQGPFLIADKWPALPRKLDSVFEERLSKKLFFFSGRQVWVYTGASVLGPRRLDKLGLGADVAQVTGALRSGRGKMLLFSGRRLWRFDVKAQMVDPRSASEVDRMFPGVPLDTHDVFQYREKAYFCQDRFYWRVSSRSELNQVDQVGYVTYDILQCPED
Assay: Ratio Kcat to Ki for MMP9
Numbered stars: 1 amine (or outer) side, 2 acyl side, 3 side chain; on linkers, the order of the positions; unused ones are H or OH. Square brackets hold non-standard residues; d marks the D form. Peptide text beside a SMILES is read from it. * marks the point of attachment. Doxorubicin(3'-N) = COc1cccc2c1C(=O)c1c(O)c3c(c(O)c1C2=O)C[C@@](O)(C(=O)CO)C[C@@H]3O[C@H]1C[C@H](N*)[C@H](O)[C@H](C)O1; hTyr = N[C@@H](CCc1ccc(O)cc1)C(=O)O; X2 = O=C(C(CCc1ccncc1)N[*:1])[*:2]; hPhe = N[C@@H](CCc1ccccc1)C(=O)O
endpoint: Ratio

COc1cccc2c1C(=O)c1c(O)c3c(c(O)c1C2=O)C[C@@](O)(C(=O)CO)C[C@@H]3O[C@H]1C[C@H](NC(=O)[C@H](CC(C)C)NC(=O)[C@H](Cc2ccc(O)cc2)NC(=O)C(CCc2ccncc2)NC(=O)CNC(=O)[C@H](CC(C)C)NC(=O)[C@@H]2CCCN2C(C)=O)[C@H](O)[C@H](C)O1 (stereo partly specified) (Ac-PLG[X2]YL-{Doxorubicin(3'-N)})
43
COc1cccc2c1C(=O)c1c(O)c3c(c(O)c1C2=O)C[C@@](O)(C(=O)CO)C[C@@H]3O[C@H]1C[C@H](NC(=O)[C@H](CC(C)C)NC(=O)[C@H](CCc2ccc(O)cc2)NC(=O)[C@H](CCc2ccccc2)NC(=O)CNC(=O)[C@H](CC(C)C)NC(=O)[C@@H]2CCCN2C(C)=O)[C@H](O)[C@H](C)O1 (Ac-PLG[hPhe][hTyr]L-{Doxorubicin(3'-N)})
> 120
COc1cccc2c1C(=O)c1c(O)c3c(c(O)c1C2=O)C[C@@](O)(C(=O)CO)C[C@@H]3O[C@H]1C[C@H](NC(=O)[C@H](CC(C)C)NC(=O)[C@H](Cc2ccc(O)cc2)NC(=O)[C@H](CC(C)C)NC(=O)CNC(=O)[C@H](CC(C)C)NC(C)=O)[C@H](O)[C@H](C)O1 (Ac-LGLYL-{Doxorubicin(3'-N)})
1

# input Data request, read-out Ratio, for COc1cccc2c1C(=O)c1c(O)c3c(c(O)c1C2=O)C[C@@](O)(C(=O)CO)C[C@@H]3O[C@H]1C[C@H](NC(=O)[C@H](CC(C)C)NC(=O)CNC(=O)[C@H](CC(C)C)NC(=O)[C@@H]2CCCN2C(C)=O)[C@H](O)[C@H](C)O1 (Ac-PLGL-{Doxorubicin(3'-N)})
# output < 1

# input Data request, read-out Ratio, for COc1cccc2c1C(=O)c1c(O)c3c(c(O)c1C2=O)C[C@@](O)(C(=O)CO)C[C@@H]3O[C@H]1C[C@H](NC(=O)[C@H](CC(C)C)NC(=O)[C@H](CC(C)C)NC(=O)CNC(=O)[C@H](CC(C)C)NC(=O)[C@@H]2CCCN2C(C)=O)[C@H](O)[C@H](C)O1 (Ac-PLGLL-{Doxorubicin(3'-N)})
# output > 120

# input Data request, read-out Ratio, for COc1cccc2c1C(=O)c1c(O)c3c(c(O)c1C2=O)C[C@@](O)(C(=O)CO)C[C@@H]3O[C@H]1C[C@H](NC(=O)[C@H](CC(C)C)NC(=O)[C@H](C)NC(=O)[C@H](CCc2ccccc2)NC(=O)CNC(=O)[C@H](CC(C)C)NC(=O)[C@@H]2CCCN2C(C)=O)[C@H](O)[C@H](C)O1 (Ac-PLG[hPhe]AL-{Doxorubicin(3'-N)})
# output < 1

----------
In this section, each of the compounds is paired with its reported solubility.
Assay: Aqueous solubility at pH 7.4
Type: physicochemical
Conditions: aqueous medium
Square brackets hold non-standard residues; d marks the D form. Peptide text beside a SMILES is read from it. * marks the point of attachment. Doxorubicin(3'-N) = COc1cccc2c1C(=O)c1c(O)c3c(c(O)c1C2=O)C[C@@](O)(C(=O)CO)C[C@@H]3O[C@H]1C[C@H](N*)[C@H](O)[C@H](C)O1; Cit = NC(=O)NCCC[C@H](N)C(=O)O; X5 = O=C(CS(=O)(=O)O)*; Bn = c1ccc(C*)cc1

COc1cccc2c1C(=O)c1c(O)c3c(c(O)c1C2=O)C[C@@](O)(C(=O)CO)C[C@@H]3O[C@H]1C[C@H](NC(=O)[C@H](CC(C)C)NC(=O)[C@H](Cc2ccc(O)cc2)NC(=O)[C@H](CSCc2ccccc2)NC(=O)CNC(=O)[C@H](CC(C)C)NC(=O)[C@@H]2CCCN2C(=O)[C@H](CCC(=O)O)NC(C)=O)[C@H](O)[C@H](C)O1 (Ac-EPLGC(Bn)YL-{Doxorubicin(3'-N)})
> 2200 µg/mL
COc1cccc2c1C(=O)c1c(O)c3c(c(O)c1C2=O)C[C@@](O)(C(=O)CO)C[C@@H]3O[C@H]1C[C@H](NC(=O)[C@H](CC(C)C)NC(=O)[C@H](Cc2ccc(O)cc2)NC(=O)[C@H](COCc2ccccc2)NC(=O)CNC(=O)[C@H](CCCNC(N)=O)NC(=O)[C@@H]2CCCN2C(=O)CS(=O)(=O)O)[C@H](O)[C@H](C)O1 (X5-P[Cit]GS(Bn)YL-{Doxorubicin(3'-N)})
> 2300 µg/mL

Moving on to the next compound.
# input Data request, read-out solubility, for COc1cccc2c1C(=O)c1c(O)c3c(c(O)c1C2=O)C[C@@](O)(C(=O)CO)C[C@@H]3O[C@H]1C[C@H](NC(=O)[C@H](CC(C)C)NC(=O)[C@H](Cc2ccc(O)cc2)NC(=O)[C@H](COCc2ccccc2)NC(=O)CNC(=O)[C@H](CC(C)C)NC(=O)[C@@H]2CCCN2C(=O)CS(=O)(=O)O)[C@H](O)[C@H](C)O1 (X5-PLGS(Bn)YL-{Doxorubicin(3'-N)})
# output > 2400 µg/mL
